List of TGI values.
- Tested on: SK-MEL-28 melanoma
- experimental-protocol: NCI tumour cell line growth inhibition, 48 h

Recorded results for 3 molecules are shown here.
| molecule | result-value |
| --- | --- |
| C=C(Cl)C(=CCl)CCC(Br)C(C)(C)Cl (mixture of isomers) | > 10 µM |
| O=C(Nc1ccccc1)c1cc(S(=O)(=O)NC2=NC(c3ccccc3)c3cc(Cl)ccc3N2)c(SSc2cc(Cl)c(C(=O)Nc3ccccc3)cc2S(=O)(=O)NC2=NC(c3ccccc3)c3cc(Cl)ccc3N2)cc1Cl (centres undefined) | > 100 µM |
| CCOc1ncn(-c2ccc(NC(=S)Nc3ncccn3)cc2)n1 | 59.8 µM |

Please find the next molecule below.
Query: Recorded TGI of O=C1C2SC34c5c2c2ccccc2n5CCC3CCCN14 (centres undefined) , please.
Result: > 100 µM

Attribution: PubChem BioAssay (NCI)
